B1: HDAC6 (parent)
chain: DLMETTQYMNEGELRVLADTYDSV

Variants of: B1
MEASUREMENT DESCRIPTION: protein stability index of a GFP-peptide fusion (GPS, HEK-293T) (PSI 1-6); higher = more stable;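 also: lentivirally expressed fusions sorted by FACS into six bins by GFP to DsRed ratio, PSI derived from sequencing read proportions per bin multiplied by bin number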
ASSAY SETUP: c terminus: a fixed tail appended
Where protein stability index equals or exceeds 4, the correct label is criterion met; where it does not, the label is criterion not met.

[[record]]
mutation_annotation = "E13I"
discrete_label = "criterion not met"

[[record]]
mutation_annotation = "L17S"
discrete_label = "criterion met"

[[record]]
mutation_annotation = "M9A"
discrete_label = "criterion met"

[[record]]
mutation_annotation = "A18T"
discrete_label = "criterion not met"

[[record]]
mutation_annotation = "T20P"
discrete_label = "criterion not met"

[[record]]
mutation_annotation = "Y8R"
discrete_label = "criterion not met"

[[record]]
mutation_annotation = "T5D"
discrete_label = "criterion met"

[[record]]
mutation_annotation = "Q7D"
discrete_label = "criterion not met"

[[record]]
mutation_annotation = "D19P"
discrete_label = "criterion not met"

[[record]]
mutation_annotation = "E4Y"
discrete_label = "criterion not met"

[[record]]
mutation_annotation = "T5V"
discrete_label = "criterion not met"

